We begin with a simple list: items and their reported zone of inhibition at 150 mg/mL.
System: Pleisiomonas sp.
Assay: Agar diffusion growth inhibition zone, Pleisiomonas sp.
Format: cell-based, Pleisiomonas species
Settings: Pleisiomonas sp.; 150 mg; 6 mm = no activity
Could you give me the number in mm? Just the number is fine.

molecule: COc1cc(/C=C/C(=O)CC(=O)/C=C/c2ccc(O)c(OC)c2)ccc1O [compound 1, Curcumin]
measure-name: zone of inhibition at 150 mg/mL
quantity-unit: mm
number: 10
--
molecule: COc1cc(/C=C/C(=O)CC(=O)/C=C/c2ccc(OC(C)=O)c(OC)c2)ccc1OC(C)=O [compound 4, O,O′- Diacetylcurcumin]
measure-name: zone of inhibition at 150 mg/mL
quantity-unit: mm
number: 6
--
molecule: COc1cc(/C=C/C(=O)COC(=O)/C=C/c2ccc(OC(C)=O)c(OC)c2)ccc1OC(C)=O [compound 6, O,O′- Diacetylcalebin-A]
measure-name: zone of inhibition at 150 mg/mL
quantity-unit: mm
number: 6
--
molecule: COc1cc(CCc2cc(CCc3ccc(O)c(OC)c3)on2)ccc1O [compound 8, Tetrahydrocurcumin Isoxazole]
measure-name: zone of inhibition at 150 mg/mL
quantity-unit: mm
number: 6

Please examine the following record next.
q: Field: zone of inhibition at 150 mg/mL (Pleisiomonas sp.). Entry: CCOC(=O)Oc1ccc(/C=C/C(=O)COC(=O)/C=C/c2ccc(OC(=O)OCC)c(OC)c2)cc1OC [compound 7, Diethylcalebin-A dicarbonate]
a: 10

* * *

Each entry below lists one item and its recorded zone of inhibition at 150 mg/mL value.
System: EAEC
Test: Agar diffusion growth inhibition zone, EAEC
Format: cell-based, Enteroaggregative E. coli
Conditions: Escherichia coli, 150 mg, 6 mm = no activity
Please give a number only; it is taken to be in mm.

Worked examples, 2 molecules total:
molecule: CCOC(=O)Oc1ccc(/C=C/C(=O)COC(=O)/C=C/c2ccc(OC(=O)OCC)c(OC)c2)cc1OC [compound 7, Diethylcalebin-A dicarbonate]
system: EAEC
measure-name: zone of inhibition at 150 mg/mL
quantity-unit: mm
number: 9
//
molecule: COc1cc(/C=C/C(=O)CC(=O)/C=C/c2ccc(OC(C)=O)c(OC)c2)ccc1OC(C)=O
system: EAEC
measure-name: zone of inhibition at 150 mg/mL
quantity-unit: mm
number: 6

Turning to the following molecule.
q: Field request: zone of inhibition at 150 mg/mL | item: `COc1cc(/C=C/C(=O)CC(=O)/C=C/c2ccc(O)c(OC)c2)ccc1O`
a: 6

* * *

Tested on: Pleisiomonas sp.
Test: Agar diffusion growth inhibition zone, Pleisiomonas sp.
Type: cell-based, Pleisiomonas species
Details: Pleisiomonas sp.; 150 mg; 6 mm = no activity
In this section, each of the compounds is paired with its reported zone of inhibition at 150 mg/mL.
Value expressed in mm; do not type the unit.

Look over these answered cases.
compound: COc1cc(/C=C/C(=O)COC(=O)/C=C/c2ccc(O)c(OC)c2)ccc1O
system: Pleisiomonas sp.
zone of inhibition at 150 mg/mL, mm: 6
--
compound: COc1cc(CCC(=O)/C=C(\N)CCc2ccc(O)c(OC)c2)ccc1O [compound 9, Amino- tetrahydrocurcumin]
system: Pleisiomonas sp.
zone of inhibition at 150 mg/mL, mm: 6

Query compound follows.
q: Using the record for `O=C(/C=C/c1ccc(O)cc1)CC(=O)/C=C/c1ccc(O)cc1` , report its zone of inhibition at 150 mg/mL.
a: 9
